Each recorded value in this set is attributed to PubChem BioAssay (NCI).

# Test system: MDA-MB-231 breast
# protocol: NCI-60 one-dose screen, 48 h
# test.conditions: 10 µM
The panel holds about 83,000 compounds, 20% with a hit somewhere; the sample as a whole holds those more often. The source made the active and inactive calls. The calls were made as follows: active = growth percent below 10; inactive = the rest.
Outcomes: active, inactive

{"molecule": "CCOC(=O)c1cc(C(=O)c2ccc(OC)c(OC)c2)n2ccncc12", "label.class": "inactive"}
{"molecule": "Cc1cc(C)nc(NS(=O)(=O)c2ccc(Nc3nc4nc(NCc5ccccc5)nc(-c5ccc(O)cc5)c4c(=O)[nH]3)cc2)n1", "label.class": "inactive"}
{"molecule": "CC1CCCC(C(=O)O)C1C(=O)O (stereo not drawn)", "label.class": "inactive"}
{"molecule": "COc1cc(C2CC(c3ccc4c(c3)OCO4)=NN2c2ccccc2)cc(OC)c1OC (stereo not drawn)", "label.class": "inactive"}
{"molecule": "O=c1oc2c(cc1-c1ccc(F)cc1)C(O)Oc1ccccc1-2 (stereo not drawn)", "label.class": "inactive"}
{"molecule": "COc1ccc(-c2n[nH]nc2-c2cc(OC)c3c(c2OC)OCO3)cc1", "label.class": "inactive"}
{"molecule": "Cc1c(Cl)cccc1NC(=O)CN1CCOCC1", "label.class": "inactive"}
{"molecule": "CCCCCOC(=O)Nc1nc(=O)n(C2O[C@H](C)[C@@H](O)[C@H]2O)cc1F (stereo partly drawn)", "label.class": "inactive"}
{"molecule": "CCn1c(SCc2ccc(C)cc2)nnc1-c1nn(-c2ccc(Cl)cc2Cl)c(-c2ccc(Cl)cc2)c1C", "label.class": "active"}
{"molecule": "O=S(=O)(O)c1cccc(Nc2ccc3ccccc3c2)c1", "label.class": "inactive"}
{"molecule": "CC(=O)N[C@H](C(=O)N[C@@H](CCCNC(=N)N)C(=O)N[C@@H](CCCCN)C(=O)N[C@@H](CCCNC(=N)N)C(=O)N[C@]1(C)CCC/C=C\\CCC[C@@](C)(C(=O)N[C@@H](CC(C)C)C(=O)N[C@@H](CC(C)C)C(=O)N[C@@H](CCC(N)=O)C(=O)N[C@@H](CCC(=O)O)C(=O)N[C@@H](CCCNC(=N)N)C(=O)N[C@@H](CCC(=O)O)C(=O)N[C@@H](CC(C)C)C(=O)N[C@H](C(=O)N[C@@H](CCC(=O)O)C(N)=O)C(C)C)NC(=O)[C@H](CCCNC(=N)N)NC(=O)[C@H](CC(C)C)NC1=O)C(C)C", "label.class": "inactive"}
{"molecule": "CNC(=O)c1c(I)c(NC(C)=O)c(I)c(C(=O)O)c1I", "label.class": "inactive"}
{"molecule": "CC(C)C1=C(O)C2=C(C(=O)C1=O)[C@@]1(C)CCCC(C)(C)[C@@H]1CC2", "label.class": "inactive"}

---

# Tested on: IGROV1 ovarian
# protocol: NCI-60 one-dose screen, 48 h (100 = growth as untreated, 0 = no growth, -100 = all killed)
# test.conditions: 10 µM
This is part of a sample that, as a whole, favours compounds with a hit. Of some 83,000 tested, about 20% had one in any assay.
Mark -1 for growth values under 80%, and 1 for everything at or above.

{"compound": "Cc1ccc(/C=C/C(=O)C(=O)/C=C/c2ccc(C)cc2)cc1", "test.system": "IGROV1 ovarian", "label.class": 1}
{"compound": "Cn1c2ccccc2c2c3[nH][nH]c(=O)c3c3c4ccccc4[nH]c3c21", "test.system": "IGROV1 ovarian", "label.class": -1}
{"compound": "COc1ccc(-c2csc(NC(=O)c3ccc(Cc4n[nH]c(=O)c5cccnc45)cc3)n2)cc1", "test.system": "IGROV1 ovarian", "label.class": -1}
{"compound": "N#Cc1ccc(C(=O)CSc2nccc(Nc3ccc(C(=O)O)cc3)n2)cc1", "test.system": "IGROV1 ovarian", "label.class": 1}
{"compound": "O=C1CC(=O)N(C(=O)c2nn(-c3ccc(Cl)cc3)cc2O)N1", "test.system": "IGROV1 ovarian", "label.class": -1}
{"compound": "CC(=O)OC/C=C(/C)C[P+](c1ccccc1)(c1ccccc1)c1ccccc1", "test.system": "IGROV1 ovarian", "label.class": 1}
{"compound": "CCN(CC)CCOc1ccc2c(c1O)C(=O)c1ccccc1C2=O", "test.system": "IGROV1 ovarian", "label.class": 1}
{"compound": "Nc1nc(-c2ccc(Cl)cc2)cc(-c2cc3ccccc3oc2=O)n1", "test.system": "IGROV1 ovarian", "label.class": -1}
{"compound": "CO[C@H]1CC(O[C@@H]2/C(C)=C/C[C@@H]3C[C@@H](C[C@]4(C=C[C@H](C)[C@@H](C5CCCCC5)O4)O3)OC(=O)[C@@H]3C=C(C)[C@@H](O)[C@H]4OC/C(=C\\C=C\\[C@@H]2C)[C@]43O)O[C@@H](C)C1O[C@H]1C[C@H](OC)[C@@H](O)[C@H](C)O1 (stereo partly drawn)", "test.system": "IGROV1 ovarian", "label.class": -1}
{"compound": "CCCCCOC(=O)Nc1nc(=O)n(C2O[C@H](C)[C@@H](O)[C@H]2O)cc1F (stereo partly drawn)", "test.system": "IGROV1 ovarian", "label.class": 1}
{"compound": "O=C(CC(CC(=O)c1ccccc1)c1ccccc1O)c1ccccc1", "test.system": "IGROV1 ovarian", "label.class": 1}
